Target: T1, SARS-COV-2 RBD (SARS-COV-2, UniProt P0DTC2 319-539)
T1 construct: also called WT RBD
Test: ELISA, RBD coated
recorded metric: EC50 (ng/mL)
One number for each entry, in ng/mL.

I need EC50 for every entry listed below, if you could help.
1. C989 (antibody, V domains shown, IgG; V domains only) VH: QVQLVQSGPEVKKPGSSVKVSCKASGGNFNSYTITWVRQAPGHGLEWMGRIIPTLGVANYALNFQDRITITADKSTSTAYMDLSSLRSEDTAVYYCARETGYSGFLAVAYMDVWGNGTTVTVSS VL: QSVLTQPPSVSGAPGQRVTISCTGSSSNVGAGYDVHWYQQLPGTAPKLLIYRNNNRPSGVPDRFSGSKSGSSASLDITGLQAEDEADYYCQSYDSSLSDSVFGGGTKLTV
2. C983 (antibody, V domains shown, IgG; V domains only) VH: QVQLVESGGGVVRPGRSLRLSCAASGFTFSKYGMHWVRQAPGKGLECVASIAYDGSDDSYADSVKGRFIISRDNSKNTLYLQMNSLRAADTAVYYCAKVLGSYCSASSCHGQRPDYWGQGTLVTVSS VL: DIQMTQSPSSLSAYVGDRVTITCQASQDISNHLNWYQQKPGKAPNLLIYDASNLETGVPSRFSGSGSGTDFSFTISSLQPEDIATYYCQQYDNVPPWTFGQGTKVEIK

4.12
2.11

Reference source for all entries: patent US20240218057A1
